Recorded values, source PubChem BioAssay.

target: Streptavidin (Streptomyces avidinii) (UniProt P22629); assay: streptavidin binders on small-molecule microarray, primary screen, artefact control for SMM compound annotation, biophysical, 635/667 nm fluorescence (AID 1147); settings: streptavidin binding, higher = more signal;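 note: signal reflects streptavidin binding to arrayed compounds as a control protein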
Sequence (P22629 whole entry, looked up): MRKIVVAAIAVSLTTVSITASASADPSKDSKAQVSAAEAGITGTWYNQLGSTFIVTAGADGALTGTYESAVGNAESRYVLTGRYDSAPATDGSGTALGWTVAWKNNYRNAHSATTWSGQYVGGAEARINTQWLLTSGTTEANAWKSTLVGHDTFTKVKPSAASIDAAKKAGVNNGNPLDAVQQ
quantity: composite z-score
Lab note: write the figure by itself, no unit.

// query Look up composite z-score with Streptavidin (Streptomyces avidinii) (UniProt P22629) for this compound: O=C1O[C@H](c2ccccc2)[C@H](c2ccccc2)N2[C@H]1[C@@H](C(=O)O)[C@]1(C(=O)Nc3ccc(C#CC4=CCCCC4)cc31)[C@H]2c1ccccc1OCCO
// result 1.97

// query Proceed to COCCOC(=O)N1C(=O)[C@@]2(c3cc(C#CC4=CCCCC4)ccc31)[C@H](c1ccc(O)cc1)N1[C@H](c3ccccc3)[C@H](c3ccccc3)OC(=O)[C@H]1[C@@H]2C(N)=O
// result 0.17

// query Also O=C1C2C=CC(C(O)C3CCCCC3)N(Nc3ccc([N+](=O)[O-])cc3)C2C(=O)N1c1ccccc1 (stereo not drawn) , if possible.
// result 0.48

// query Try this compound next: COc1ccc([Si](C)(C)[C@H]2[C@H](CCO)O[C@@]3(C(=O)N(Cc4ccc(N5C(=O)COc6ccccc65)cc4)c4ccccc43)[C@@H]2C)cc1
// result -0.314

// query Now the same for CCCCC(O)C1C=CC2C(=O)N(c3ccccc3)C(=O)C2N1Nc1ccccc1F (stereo not drawn)
// result 2.09
